The compounds listed here are annotated with their cytotoxicity at 70.5 h.
test: Human HepG2 cell viability assay in 384 well format; type: toxicity, cell-based; design: dose 125 nL, time 70.5 hour; concentration not given beside the values; conditions: HepG2 cells, read-out: Inhibition

compound	unit.of.measurement	cytotoxicity at 70.5 h
CCn1c(SCC(=O)O)nnc1C(C)NC(=O)c1ccc(Cl)cc1 (stereo unspecified)	%	-8.19
c1ccc(C2CCCN2C2CCSCC2)nc1 (stereo unspecified)	%	0.0849
CCCN1CCCC2(CCN(Cc3cncn3C3CCCC3)C2)C1=O (stereo unspecified)	%	-8.03
Cc1cc(NCCn2cccn2)n2ncnc2n1	%	0.75
Cc1cccc(CC2CCCN(C(=O)Cc3csc(C)n3)C2)n1 (stereo unspecified)	%	-10.5
CN(C(=O)c1ccco1)C1CCC(NC(=O)OC(C)(C)C)CC1 (stereo unspecified)	%	-6.4

---

assay: Human HepG2 cell viability assay in 384 well format; format: toxicity, cell-based; set-up: dose 125 nL, time 70.5 hour; concentration not given beside the values; conditions: HepG2 cells, read-out: Inhibition

molecule	cytotoxicity at 70.5 h [%]
CC(C)(C)NC(=O)C1(Cc2ccccc2-c2ccncc2)CCOCC1	27.7
COCCCN(Cc1ccccn1)S(=O)(=O)Cc1ccccc1	-18.4
CCN1CCCC(c2c(-c3ccccc3)ncn2Cc2cccnc2)C1 (stereo unspecified)	-9.92
c1ccc(COC[C@@]23CCC[C@@H]2CN(Cc2ccccn2)C3)nc1	0.536
CNC(=O)[C@@H]1C[C@H](N)CN1Cc1cc2cc(C)cc(C)c2[nH]c1=O	-13.7
CCC(CNC(=O)c1ccc(=O)[nH]n1)N1CCc2ccccc2C1 (stereo unspecified)	-10.3
Cc1cc(C)c2c(c1)C(CC(=O)O)C(=O)N2 (stereo unspecified)	24.2
c1ccc(O[C@H]2COCCN(Cc3cccc4c3OCO4)C2)cc1	-1.37
CCC(Nc1cccc(OC)c1)C(=O)NCc1nc(C)cc(=O)[nH]1 (stereo unspecified)	-5.76
N#Cc1ccc(CC(=O)N2CCCC(n3cccn3)C2)cc1 (stereo unspecified)	-5.65
Cc1cc(C)nc(NC2CCOC3(CCCC3)C2)n1 (stereo unspecified)	3.01

---

test: Human HepG2 cell viability assay in 384 well format; assay type: toxicity, cell-based; parameters: dose 125 nL, time 70.5 hour; concentration not given beside the values; conditions: HepG2 cells, read-out: Inhibition
The compounds listed here are annotated with their cytotoxicity at 70.5 h.

compound	cytotoxicity at 70.5 h
O=C(CC1=CCCCC1)NCCc1csc(N2CCCC2)n1	-0.0397%
O=C(NC1CCN(Cn2nc(-c3ccccc3)oc2=O)CC1)C1CC1	1.77%
OC(CNCCc1nnc2ccccn12)c1ccc(F)c(F)c1 (stereo unspecified)	-6.79%
COC(=O)[C@H]1C[C@@H](O)CCN1S(=O)(=O)c1c(C)cc(OC)c(C)c1C	27%
CN(C)[C@@H]1CN(Cc2ccc(O)cc2)C[C@H]1c1cn(C)c2ccccc12	3.53%
Cc1cc(CNC(=O)C2CC(=O)N(CCN(C)C)C2)cc(C)n1 (stereo unspecified)	27.5%
CCOCC(=O)Nc1ncc(I)cc1C	-7.61%
O=C1CCC2(CCN(Cc3cscn3)CC2)CN1CCCO	-8.82%
O=C1C(N2CC[C@@H](O)C2)CCCN1Cc1cccc(C(F)(F)F)c1 (stereo partly specified)	-18.9%
Cc1cn2nc(N3CCCC3C(=O)N3CCN(C)CC3)sc2n1 (stereo unspecified)	13.5%
O=C(Cn1nc(C(F)(F)F)c(Br)c1C1CC1)N1CCOCC1	-5.88%
